- target-desc: phosphatidylinositol 5-phosphate 4-kinase γ (PI5P4Kγ) (Homo sapiens)
- Construct: gene PIP4K2C; PI5P4Kγ from GST fusion (pGEX6P), GST cleaved with PreScission protease
- Sequence (Q8TBX8 2-421): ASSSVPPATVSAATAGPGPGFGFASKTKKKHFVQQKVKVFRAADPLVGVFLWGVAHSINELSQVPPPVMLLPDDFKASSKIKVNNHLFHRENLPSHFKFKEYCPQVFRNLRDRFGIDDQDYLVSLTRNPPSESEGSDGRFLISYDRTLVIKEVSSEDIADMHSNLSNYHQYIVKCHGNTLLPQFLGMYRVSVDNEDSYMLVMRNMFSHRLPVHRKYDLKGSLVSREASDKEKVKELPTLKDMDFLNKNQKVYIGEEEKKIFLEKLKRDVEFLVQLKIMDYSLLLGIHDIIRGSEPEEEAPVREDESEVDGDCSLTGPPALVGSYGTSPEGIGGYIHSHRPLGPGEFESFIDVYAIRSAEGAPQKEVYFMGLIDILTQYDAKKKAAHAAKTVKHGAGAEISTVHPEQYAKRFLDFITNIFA
- assay-procedure: HDX-MS with purified protein; IC50 from […]P lipid kinase assay on recombinant enzyme
- Format: biochemical
property: IC50 (µM)

>>> print(df.to_string())
                                   compound  result
0  FC(F)(F)c1ccccc1-c1nc(NCc2cccs2)c2ccccc2n1 [compound 1, NIH-12848]     3.3
